This listing pairs compounds with measured EC50.
Test system: P. tricornutum Bohlin
Assay: Diatom growth inhibition assay (antialgal activity)
Format: cell-based, Phaeodactylum tricornutum Bohlin
Conditions: Phaeodactylum tricornutum, 48 h, chlorophyll a of attached microalgae, read-out: EC50 P. tricornutum

# compound, EC50
rows = [
    ("[2H]C([2H])([2H])C1(C([2H])([2H])[2H])OC2C=CCC(C)OC(=O)c3c(cc(OC)cc3OCc3ccccc3Br)C=CCC(O)C2O1 (stereo not shown)", "28.2 µM"),
    ("COc1cc2c(c(OCc3ccc4ccccc4c3)c1)C(=O)OC(C)CC=CC(O)C(O)C(O)CC=C2 (stereo not shown)", "> 10 µM"),
    ("COc1cc(OC(=O)C(C)(C)C)c2c(c1Cl)C=CCC(O)C(O)C(O)C=CCC(C)OC2=O (stereo not shown)", "22.3 µM"),
    ("COc1cc2c(c(OCc3ccccc3Br)c1)C(=O)OC(C)CC=CC(O)C(O)C(O)CC=C2 (stereo not shown)", "< 10 µM"),
    ("COc1cc2c(c(OCc3ccc(C(C)(C)C)cc3)c1)C(=O)OC(C)CC=CC(O)C(O)C(O)CC=C2 (stereo not shown)", "25.7 µM"),
    ("COCC(=O)Oc1cc(OC)cc2c1C(=O)O[C@@H](C)C/C=C/[C@H](O)[C@@H](O)[C@@H](O)C/C=C/2", "16.2 µM"),
    ("COc1cc2c(c(OCc3ccc(C(F)(F)F)cc3)c1)C(=O)OC(C)CC=CC1OC(C)(C)OC1C(O)CC=C2 (stereo not shown)", "> 10 µM"),
]
